Values were extracted from patent US20250034139A1.

Measured MIC of individual entries
Tested on: Candida albicans strains
assay.summary: Example N: MIC and MFC (CLSI) against Candida albicans
Type: cell-based
assay.conditions: Candida albicans, read-out: MIC 100%, Range; 48 hr, three clinical strains

CCCCCCOCCCCCCCCCCNc1ccnc2ccccc12 [Compound AL, N-[10-(Hexyloxy)decyl]quinolin-4-amine] ... 2 to 4 µg/mL
CCCCCCOCCCCCCCCNc1ccnc2cc(Cl)ccc12 ... 8 µg/mL
CCCCOCCCCCCCCCCNc1ccnc2ccccc12 ... 2 to 4 µg/mL

Note down MIC recorded for CCCCCCOCCCCCCCCNc1ccnc2c(Cl)cccc12 2 to 4 µg/mL

Note down MIC recorded for CCCCCCOc1cccc(CNc2ccnc3ccccc23)c1 [Compound AC, N-[3-(Hexyloxy)benzyl]quinolin-4-amine] 0.5 to 2 µg/mL

Note down MIC recorded for CCCCCCCCCCNc1ncnc2ccccc12 1 to 4 µg/mL

Note down MIC recorded for COc1ccc(OCCCCCCCCNc2ncnc3ccccc23)cc1 4 µg/mL

Note down MIC recorded for CCCCCCCCCCNc1ccnc2ccccc12 1 to 4 µg/mL

====

Test system: Aspergillus fumigatus strains
assay.summary: Example N: MIC and MFC (CLSI) against Aspergillus fumigatus
Format: cell-based
assay.conditions: Aspergillus fumigatus, 48 h, read-out: MIC 100%
quantity.measured: MIC (mg/L)

CCCCOCCCCCCCCCCNc1ccnc2ccccc12 [AM, N-(10-Butoxydecyl)quinolin-4-amine] ... 4
CCCCCCOc1cccc(CNc2ccnc3ccccc23)c1 [Compound AC, N-[3-(Hexyloxy)benzyl]quinolin-4-amine] ... 1

(P) CCCCCCOCCCCCCCCCCNc1ccnc2ccccc12 [Compound AL, N-[10-(Hexyloxy)decyl]quinolin-4-amine]
(Q) CCCCCCOCCCCCCCCNc1ccnc2cc(Cl)ccc12 [AW]
// pick larger MIC from pair: P vs Q Let me know the label of the one you choose. Q
(Q: 16 mg/L, P: 4 mg/L)

====

Measured viability at 5 µM of individual entries
Test system: 4T1 murine breast cancer cells
assay.summary: Example S: in vitro anticancer screen, 4T1 cells, Wst1
Type: cell-based, mouse
assay.conditions: Mus musculus, 4T1, 18 h, 5 μM, 18 hr, Wst1; read-out: 4T1 5 μM, percent of cancer cell survival relative to vehicle treated cells
Report the value in % with no unit label.

CCCCCCOCCCCCCCCNc1ccnc2c(C(F)(F)F)cccc12 [CN] ... 18.8

Send back 4T1 murine breast cancer cells viability at 5 µM of Fc1cccc(OCCCCCCCCNc2ccnc3ccccc23)c1 [BI] only. 17.3

Send back 4T1 murine breast cancer cells viability at 5 µM of CCCCCCOCCCCCCCCNc1cccc2cnccc12 [FT, N-[8-(Hexyloxy)octyl]isoquinolin-5-amine] only. 27.6

Send back 4T1 murine breast cancer cells viability at 5 µM of O=C(NCCCCCCNc1ccnc2ccccc12)c1ccccc1 [DX, N-[6-(Quinolin-4-ylamino)hexyl]benzamide] only. 105

Send back 4T1 murine breast cancer cells viability at 5 µM of c1ccc(Oc2ccccc2Nc2ccnc3ccccc23)cc1 [DF, N-(2-Phenoxyphenyl)quinolin-4-amine] only. 20.8

====

Measured Vincristine 100 nM: percent cell survival of individual entries
System: PC-3 prostate cancer cells
assay.summary: Example T: sensitisation of PC-3 cells to doxorubicin, oxaliplatin, paclitaxel or vincristine, Wst1
Format: cell-based, human
assay.conditions: PC-3 cells; compound 0.4 μM + vincristine 100 nM; 72 hours; chemotherapy agent alone normalized to 100%
Report the value in % with no unit label.

These solved cases illustrate the format of a correct answer.
Fc1ccccc1OCCCCCCCCNc1ccnc2ccccc12 ... 29.6
CCCOCCOCCCCCCCCNc1ccnc2ccccc12 ... 33.3
O=C(NCCCCCCCCNc1ccnc2ccccc12)c1cccnc1 ... 23.4

Note down Vincristine 100 nM: percent cell survival recorded for c1ccc(OCCCCCCCCNc2ccnc3ccccc23)cc1 67.3

Note down Vincristine 100 nM: percent cell survival recorded for CCCCCCOc1ccc(OCCCCNc2ccnc3ccccc23)cc1 90.3

Note down Vincristine 100 nM: percent cell survival recorded for CCCCCCOc1cccc(CNc2ccnc3ccccc23)c1 [Compound AC, N-[3-(Hexyloxy)benzyl]quinolin-4-amine] 34.1

Note down Vincristine 100 nM: percent cell survival recorded for c1ccc(COc2cccc(CNc3ccnc4ccccc34)c2)cc1 [BU, N-[3-(Benzyloxy)benzyl]quinolin-4-amine] 26.7

Note down Vincristine 100 nM: percent cell survival recorded for COCCCCCCCCNc1cc[n+](C)cc1.[I-] 69.7

Note down Vincristine 100 nM: percent cell survival recorded for Cc1ccc(OCCCCCCCCNc2ccnc3ccccc23)cc1 [BF, N-[8-(p-Tolyloxy)octyl]quinolin-4-amine] 74.1
